# system_name: 17β-HSD3 (Homo sapiens)
# Sequence (P37058 1-310): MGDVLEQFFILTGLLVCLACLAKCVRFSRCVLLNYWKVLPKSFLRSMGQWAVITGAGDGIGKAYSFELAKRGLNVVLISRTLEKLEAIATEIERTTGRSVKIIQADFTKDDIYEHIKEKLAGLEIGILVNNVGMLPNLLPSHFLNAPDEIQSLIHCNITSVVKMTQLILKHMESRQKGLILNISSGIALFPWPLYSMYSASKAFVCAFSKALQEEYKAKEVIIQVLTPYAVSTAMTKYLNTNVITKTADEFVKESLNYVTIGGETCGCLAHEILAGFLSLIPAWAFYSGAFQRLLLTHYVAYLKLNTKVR
# test_summary: TLC assay of androstenedione to testosterone conversion in Shinogi-17β-HSD3 cells
# Assay type: cell-based
# conditions: Shinogi-17β-HSD3 cells incubated with {3H}-androstenedione; read-out: IC50 estimated by TLC assay
# Procedure: Cells were plated in 24-well tissue culture plates at 5×10^4 cells per well in their appropriate media. After allowing the cells to adhere for 24 hours, the media was changed to contain 10% cFBS (charcoal treated FBS) (300 μL) per well and 0.5μ Ci of the radiolabeled hormones were added to each well. […] The BAS screens were then read using a Fujifilm PhosphoImager FLA-2000 and spots were quantitated using the Fujifilm MacBas imaging/densitometry program. […]
endpoint_name: IC50

Request: Assign IC50 to the following record: "COc1ccccc1CCNC(=O)c1cc(Oc2ccccc2)ccc1NC(=O)c1ccc(O)c(Cl)c1"
Result: ~300 nM

Where do the numbers come from? From patent US7138246B2.
